B1: library; numbered along this chain (parent)
chain: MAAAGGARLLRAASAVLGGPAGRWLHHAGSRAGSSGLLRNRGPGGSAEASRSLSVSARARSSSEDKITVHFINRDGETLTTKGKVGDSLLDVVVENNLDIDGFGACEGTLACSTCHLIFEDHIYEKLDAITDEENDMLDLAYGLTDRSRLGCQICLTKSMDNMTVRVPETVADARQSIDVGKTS

# Variants of: B1
# PROTOCOL SUMMARY: scaled log2 fold change in cell abundance, elesclomol vs control (0 = silent mean, 1 = nonsense mean) (scaled log2 ratio); higher = higher viability under elesclomol (loss of FDX1 cuproptosis function);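 note: variant abundance is its share of total variant reads in each endpoint sample, from next-generation sequencing of the integrated ORF PCR-amplified out of genomic DNA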
# STUDY CONDITIONS: with HEK293T FDX1 KO; elesclomol 40 nM; glucose 10 mM; 11 days
Recorded scaled log2 fold change by entry
# print the numeric value only

Examples from the recorded data:
MUTATION ID | scaled log2 fold change
A21E | -0.444
D65Q | 0.293
G44L | 0.155
N135Q | -0.339
L79F | -0.166

Let us move to another entry and its scaled log2 fold change.
Lab note: measured scaled log2 fold change of R11H was -0.696

From: the supplement of paper PMC12855868
